These entries and their values trace back to patent US20260274829A1.

// values below are reported pIC50
# Measured Target: human Cereblon WT GST-tagged protein (Homo sapiens)
# Construct: purchased CISBIO 64BDCRBNPEH
# Assay Comment: CRBN binding, HTRF CEREBLON BINDING kit
# Particulars: CRBN binding, HTRF CEREBLON BINDING kit
pIC50: −log10 of the molar value.
Property: pIC50

compound=O=C1CCN(c2ccc(CN3CCC(n4cc(NC(=O)c5cnn6ccc(N7C[C@H]8C[C@@H]7CO8)nc56)c(C(F)F)n4)CC3)nc2)C(=O)N1 measured_target="human Cereblon WT GST-tagged protein (Homo sapiens)" reported_measurement="6.00 to 6.30"
compound=O=C1CCN(c2ccc(CN3CCC(n4cc(NC(=O)c5cnn6ccc(N7CCOCC7)nc56)c(C(F)F)n4)CC3)nc2)C(=O)N1 measured_target="human Cereblon WT GST-tagged protein (Homo sapiens)" reported_measurement="> 6.30"
compound=COc1cc2nn(C3CCN(Cc4ccc(N5CCC(=O)NC5=O)cc4)CC3)cc2cc1NC(=O)c1cccc(C(F)(F)F)c1 measured_target="human Cereblon WT GST-tagged protein (Homo sapiens)" reported_measurement="5.72 to 6.00"
compound=CN(Cc1ccc(N2CCC(=O)NC2=O)cn1)C1CCN(c2ccc(Nc3ncc4nc(Nc5ccccc5)n(C5CCCC5)c4n3)cc2)CC1 measured_target="human Cereblon WT GST-tagged protein (Homo sapiens)" reported_measurement="6.00 to 6.30"
compound="Nc1nnc(-c2cc(F)ccc2O)cc1N1CCN(Cc2ccc(C3CCC(=O)NC3=O)cc2)CC1 (stereo not drawn)" measured_target="human Cereblon WT GST-tagged protein (Homo sapiens)" reported_measurement="6.00 to 6.30"
compound=CCc1cc2c(cc1N1CCC(N3CCN(Cc4ccc(N5CCC(=O)NC5=O)cn4)CC3)CC1)C(C)(C)c1[nH]c3cc(C#N)ccc3c1C2=O measured_target="human Cereblon WT GST-tagged protein (Homo sapiens)" reported_measurement="6.00 to 6.30"

###

# Measured Target: human Cereblon WT GST-tagged protein (Homo sapiens)
# Construct: purchased CISBIO 64BDCRBNPEH
# Assay Comment: CRBN binding, HTRF CEREBLON BINDING kit
# Particulars: CRBN binding, HTRF CEREBLON BINDING kit
Property: IC50

compound="Cc1nc2c(F)cc(-c3nc(Nc4ccc(CN5CCN(Cc6cccc(N7CCC(=O)NC7=O)c6)CC5)cn4)ncc3F)cc2n1C(C)C [GT-06666]" property=IC50 reported_measurement="< 500 nM"
compound="CCc1cc2c(cc1N1CCC(N3CCN(Cc4cc(C5CCC(=O)NC5=O)cnc4F)CC3)CC1)C(C)(C)c1[nH]c3cc(C#N)ccc3c1C2=O (stereo not shown) [GT-07703]" property=IC50 reported_measurement="< 500 nM"
compound="CN(Cc1ccc(N2CCC(=O)NC2=O)cn1)C1CCN(c2ccc(-c3cc(F)c4c(c3)C(=O)N(C(C(=O)Nc3nccs3)c3ncn5c3CCC5)C4)cc2)CC1 (stereo not shown) [GT-05282]" property=IC50 reported_measurement="500 to 1000 nM"
compound="COc1cc2nn(C3CCN(Cc4cccc(N5CCC(=O)NC5=O)c4)CC3)cc2cc1NC(=O)c1cccc(C(F)(F)F)n1 [GT-04774]" property=IC50 reported_measurement="1000 to 1900 nM"
compound="COc1cc2nn(C3CCN(Cc4ccc(N5CCC(=O)NC5=O)cc4F)CC3)cc2cc1NC(=O)c1cccc(C(F)(F)F)n1 [GT-04777]" property=IC50 reported_measurement="1000 to 1900 nM"
compound="O=C1CCC(c2ccc(CN3CCC(n4cc(NC(=O)c5cnn6ccc(N7C[C@H]8C[C@@H]7CO8)nc56)c(C(F)F)n4)CC3)cc2)C(=O)N1 (stereo partly shown) [GT-05050]" property=IC50 reported_measurement="< 500 nM"
compound="Nc1nnc(-c2ccccc2O)cc1N1CCN(Cc2ccc(C3CCC(=O)NC3=O)cc2)CC1 (stereo not shown) [GT-05015]" property=IC50 reported_measurement="< 500 nM"
compound="NC(=O)c1ncc(N2CCCCC2)nc1Nc1ccc(C2CCN(Cc3cccc(NC4CCC(=O)NC4=O)c3)CC2)cc1 (stereo not shown) [GT-04791]" property=IC50 reported_measurement="500 to 1000 nM"
compound="O=C1CCN(c2ccc(CN3CCN(C4CCN(c5ccc(-c6cc(F)c7c(c6)C(=O)N(C(C(=O)Nc6nccs6)c6ncn8c6CCC8)C7)cc5)CC4(F)F)CC3)nc2)C(=O)N1 (stereo not shown) [GT-06319]" property=IC50 reported_measurement="< 500 nM"
compound="CC(C)(O)c1cc2nc(C3CCN(Cc4ccc(N5CCC(=O)NC5=O)cc4)CC3)oc2cc1NC(=O)c1cccc(C(F)(F)F)n1 [GT-05772]" property=IC50 reported_measurement="1000 to 1900 nM"
compound="COC1CCN(c2nccc(Nc3cc4c(cn3)c(N3CCC(N(C)Cc5cccc(N6CCC(=O)NC6=O)c5)CC3)nn4C(C)C)n2)CC1 [GT-06122]" property=IC50 reported_measurement="1000 to 1900 nM"
compound="O=C1CCC(c2cnc(F)c(CN3C[C@H]4C[C@@H]3CN4c3ccc(-c4cc(F)c5c(c4)C(=O)N(C(C(=O)Nc4nccs4)c4ncn6c4CCC6)C5)cc3)c2)C(=O)N1 (stereo partly shown) [GT-07562]" property=IC50 reported_measurement="< 500 nM"
compound="Cc1cc(Nc2ncc(Cl)c(Nc3ccccc3S(=O)(=O)C(C)C)n2)c(OC(C)C)cc1C1CCN(Cc2cc(C3CCC(=O)NC3=O)cnc2F)CC1 (stereo not shown) [GT-07598]" property=IC50 reported_measurement="500 to 1000 nM"

###

# Measured Target: human Cereblon WT GST-tagged protein (Homo sapiens, UniProt Q96SW2)
# Construct: purchased CISBIO 64BDCRBNPEH
# Sequence (Q96SW2 whole entry): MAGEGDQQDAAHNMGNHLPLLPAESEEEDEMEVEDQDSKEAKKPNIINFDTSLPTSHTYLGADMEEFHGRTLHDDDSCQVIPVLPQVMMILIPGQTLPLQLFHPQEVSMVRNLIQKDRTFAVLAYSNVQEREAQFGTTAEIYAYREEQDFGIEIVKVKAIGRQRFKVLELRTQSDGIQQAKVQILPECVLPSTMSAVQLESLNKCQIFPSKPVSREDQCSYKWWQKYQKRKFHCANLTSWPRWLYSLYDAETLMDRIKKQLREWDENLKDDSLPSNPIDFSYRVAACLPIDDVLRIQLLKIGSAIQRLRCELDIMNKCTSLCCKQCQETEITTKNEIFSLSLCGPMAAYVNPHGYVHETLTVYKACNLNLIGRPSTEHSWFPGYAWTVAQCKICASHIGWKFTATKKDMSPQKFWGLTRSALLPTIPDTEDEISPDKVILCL
# Assay Comment: CRBN binding, HTRF CEREBLON BINDING kit
# Particulars: CRBN binding, HTRF CEREBLON BINDING kit
Property: IC50

compound="CN(Cc1ccc(C2CCC(=O)NC2=O)cn1)C1CCN(c2ccc(-c3cc(F)c4c(c3)C(=O)N(C(C(=O)Nc3nccs3)c3ncn5c3CCC5)C4)cc2)CC1 (stereo not drawn)" measured_target="human Cereblon WT GST-tagged protein (Homo sapiens, UniProt Q96SW2)" reported_measurement="< 500 nM"
compound=CCc1cc2c(cc1N1CCN(Cc3ccc(N4CCC(=O)NC4=O)cc3)CC1)C(C)(C)c1[nH]c3cc(C#N)ccc3c1C2=O measured_target="human Cereblon WT GST-tagged protein (Homo sapiens, UniProt Q96SW2)" reported_measurement="1000 to 1900 nM"
compound="O=C1CCN(c2cccc(CN3CCC(N4CCN(c5ccc(-c6cc(F)c7c(c6)C(=O)N(C(C(=O)Nc6nccs6)c6ncn8c6CCC8)C7)cc5)CC4)CC3)c2)C(=O)N1 (stereo not drawn)" measured_target="human Cereblon WT GST-tagged protein (Homo sapiens, UniProt Q96SW2)" reported_measurement="500 to 1000 nM"
compound="O=C1CCC(c2ccc(CN3CCN(c4ccc(-c5cc(F)c6c(c5)C(=O)N(C(C(=O)Nc5nccs5)c5ncn7c5CCC7)C6)cc4)CC3)nc2)C(=O)N1 (stereo not drawn)" measured_target="human Cereblon WT GST-tagged protein (Homo sapiens, UniProt Q96SW2)" reported_measurement="< 500 nM"
compound=CC(C)(O)c1cc2nn(C3CCN(Cc4cccc(N5CCC(=O)NC5=O)c4)CC3)cc2cc1NC(=O)c1cccc(C(F)(F)F)n1 measured_target="human Cereblon WT GST-tagged protein (Homo sapiens, UniProt Q96SW2)" reported_measurement="500 to 1000 nM"
compound="O=C1CCN(c2ccc(CN3CCN(C4CCN(c5ccc(-c6cc(F)c7c(c6)C(=O)N(C(C(=O)Nc6nccs6)c6ncn8c6CCC8)C7)cc5)CC4)CC3)nc2)C(=O)N1 (stereo not drawn)" measured_target="human Cereblon WT GST-tagged protein (Homo sapiens, UniProt Q96SW2)" reported_measurement="< 500 nM"

###

# Test system: MV-4-11
# Assay Comment: CCK-8 tumor cell proliferation IC50, MV-4-11
# Particulars: Homo sapiens, MV4-11, MV-4-11 cells, compounds designed based on the IRAK4 inhibitors, read-out: Inhibitory activity (IC50, nM) on tumor cell proliferation, MV-4-11
Property: IC50

structure_notation=Cc1cc(-c2nc(C(=O)Nc3cc4oc(N5CCOCC5)nc4nc3N3CC[C@@H](O)C3)co2)ccn1 reported_measurement="50 to 100 nM"

###

Measured IC50 of individual entries
# Measured Target: human Cereblon WT GST-tagged protein (Homo sapiens)
# Construct: purchased CISBIO 64BDCRBNPEH
# Assay Comment: CRBN binding, HTRF CEREBLON BINDING kit
# Particulars: CRBN binding, HTRF CEREBLON BINDING kit
Property: IC50

molecule="COc1cc2nn(C3CCN(Cc4ccc(C5CCC(=O)NC5=O)c(F)c4)CC3)cc2cc1NC(=O)c1cccc(C(F)(F)F)c1 (stereo not drawn) [GT-04748]" reported_measurement="1000 to 1900 nM"
molecule="Cc1nc2c(F)cc(-c3nc(Nc4ccc(CN5CCN(Cc6ccc(C7CCC(=O)NC7=O)cc6)CC5)cn4)ncc3F)cc2n1C(C)C (stereo not drawn) [GT-06664]" reported_measurement="500 to 1000 nM"
molecule="O=C1CCC(c2cncc(CN3C[C@H]4C[C@@H]3CN4c3ccc(-c4cc(F)c5c(c4)C(=O)N(C(C(=O)Nc4nccs4)c4ncn6c4CCC6)C5)cc3)c2)C(=O)N1 (stereo partly drawn) [GT-07391]" reported_measurement="< 500 nM"
